normalized growth values for the compounds below.
assay: chemical genetic growth profiling, strain panel (AID 1159580);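 note: tested at 20 µM; growth read once vehicle control cultures reached saturation at 30 °C; 1 = growth at the plate median or of vehicle wells; lower values mean less growth of the strain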; settings: S. cerevisiae deletion strains, growth OD, locus YBR135W, strain CKS1, hits give low values
Hit rate of the full screen: of about 5,500 compounds, about 2,000 (36%) were called active. Inconclusive results (about 18%) are left out. The list shows a part of the results.
The reply should be a number, written without any unit.

May I ask what normalized growth has been recorded for OC(c1ccc(C(F)(F)F)cc1)c1cccc(C(F)(F)F)c1 (stereo unspecified) ? 0.973

Look up normalized growth: Nc1cc(-c2ccc(OC(F)(F)F)cc2)nn1-c1ccc(Cl)c(Cl)c1 0.981

---

experiment: chemical genetic growth profiling, strain panel (AID 1159580);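 note: tested at 20 µM; growth read once vehicle control cultures reached saturation at 30 °C; 1 = growth at the plate median or of vehicle wells; lower values mean less growth of the strain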; conditions: S. cerevisiae deletion strains, growth OD, strain wtn01
About 2,000 (36%) of roughly 5,500 compounds were called active. Not shown: some 18% with an inconclusive outcome. Rule as the data show it: active = normalized growth mostly below about 0.91 (no sharp cut-off); inconclusive = no clear call, values can overlap the other calls; inactive = mostly above about 0.92. The list shows a part of the results.
Your response should consist of one outcome taken from true (1) = active, false (0) = inactive

These solved cases illustrate the format of a correct answer.
CC(=O)O[C@H]1CC[C@@]2(C)C(=CCC3C2CC[C@]2(C)C(=O)CCC32)C1 (stereo partly drawn)    true (1)
O=C(O)c1cc(O)c(O)c(O)c1    false (0)

Status in this test for CCCCC(CC)CN=C(N)NC(N)=NCCCCCCN=C(N)NC(N)=NCC(CC)CCCC (stereo not drawn) ? true (1)

---

// reported normalized growth for each item listed
assay: chemical genetic growth profiling, strain panel (AID 1159580);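 note: tested at 20 µM; growth read once vehicle control cultures reached saturation at 30 °C; 1 = growth at the plate median or of vehicle wells; lower values mean less growth of the strain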; conditions: S. cerevisiae deletion strains, growth OD, locus YGL167C, strain pmr1, hits give low values
In all, about 5,500 compounds went through this assay and about 2,000 (36%) were called active. Roughly 18% stayed inconclusive and do not appear here. Some of the results follow.
Lab note: record the figure alone, no unit after it.

Check out these entries, answers already filled in.
CC12CCC(CC1)C(C)(C)O2    0.979
C=CC1=C(C)/C(=C/c2[nH]c(Cc3[nH]c(/C=C4\NC(=O)C(C)=C4C=C)c(C)c3CCC(=O)O)c(CCC(=O)O)c2C)NC1=O    0.995
CCN(CC)CCOC(=O)C(Cc1cccc2ccccc12)CC1CCCO1 (stereo not drawn)    1.01

I'd like to know its normalized growth. The compound in question is O=C1OCCN1/N=C\c1ccc([N+](=O)[O-])o1 1

So what's the measured normalized growth for this one? CCn1cc(C(=O)O)c(=O)c2ccc(C)nc21 0.912

normalized growth lookup needed for CCOC(=O)CCCCCCCCCCCCC1C=CCC1 (stereo not drawn) , thanks. 0.972

What normalized growth value was documented for this compound, O=C(O)P(=O)(O)O ? 0.984

Any idea what its normalized growth is? The compound is O=C(/C=C/c1ccc(O)c(O)c1)O[C@@H]1C[C@](O)(C(=O)O)C[C@@H](O)[C@H]1O 0.971

So what does the record say about normalized growth for NC(=O)c1cnccn1 ? 0.987

# normalized growth lookup, item CC[C@]1(O)CC2CN(CCc3c([nH]c4ccccc34)[C@@](C(=O)OC)(c3cc4c(cc3OC)N(C=O)[C@H]3[C@@](O)(C(=O)OC)[C@H](OC(C)=O)[C@]5(CC)C=CCN6CC[C@]43[C@@H]65)C2)C1 (stereo partly drawn) 0.972

Any idea what normalized growth was measured for O=C(O)CCCCC1SCC2NC(=O)NC21 (stereo not drawn) ? 0.99

What value of normalized growth has been recorded for this entry: COc1cc2c(cc1O)CC1c3c(cc(O)c(OC)c3-2)CCN1C (stereo not drawn) 1

I would be grateful if you could share the reported normalized growth for COc1ccccc1OCC(O)CN1CCN(CC(=O)Nc2c(C)cccc2C)CC1 (stereo not drawn) . 0.989
